- TARGET OR SYSTEM: PRMT5 (Homo sapiens, UniProt O14744)
- Construct: purchased Viva (custom protein)
- Sequence (O14744 whole entry): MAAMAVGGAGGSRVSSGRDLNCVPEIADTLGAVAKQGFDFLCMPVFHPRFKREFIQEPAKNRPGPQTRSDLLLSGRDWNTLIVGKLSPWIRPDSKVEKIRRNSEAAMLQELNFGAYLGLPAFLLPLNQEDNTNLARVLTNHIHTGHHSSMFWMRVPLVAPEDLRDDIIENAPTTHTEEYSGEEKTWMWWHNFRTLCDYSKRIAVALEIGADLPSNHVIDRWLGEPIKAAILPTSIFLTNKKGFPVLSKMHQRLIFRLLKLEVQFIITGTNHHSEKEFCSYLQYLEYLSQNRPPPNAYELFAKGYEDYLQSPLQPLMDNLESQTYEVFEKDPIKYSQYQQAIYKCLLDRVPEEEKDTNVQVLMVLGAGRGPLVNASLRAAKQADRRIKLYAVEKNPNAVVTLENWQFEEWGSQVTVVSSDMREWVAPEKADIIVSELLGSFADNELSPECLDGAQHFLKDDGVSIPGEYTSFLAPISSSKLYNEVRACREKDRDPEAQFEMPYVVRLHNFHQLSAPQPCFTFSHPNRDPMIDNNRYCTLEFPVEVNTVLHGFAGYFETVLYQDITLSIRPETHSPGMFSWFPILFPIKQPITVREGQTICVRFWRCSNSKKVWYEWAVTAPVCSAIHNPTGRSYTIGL
- Sequence (Q9BQA1 whole entry partner): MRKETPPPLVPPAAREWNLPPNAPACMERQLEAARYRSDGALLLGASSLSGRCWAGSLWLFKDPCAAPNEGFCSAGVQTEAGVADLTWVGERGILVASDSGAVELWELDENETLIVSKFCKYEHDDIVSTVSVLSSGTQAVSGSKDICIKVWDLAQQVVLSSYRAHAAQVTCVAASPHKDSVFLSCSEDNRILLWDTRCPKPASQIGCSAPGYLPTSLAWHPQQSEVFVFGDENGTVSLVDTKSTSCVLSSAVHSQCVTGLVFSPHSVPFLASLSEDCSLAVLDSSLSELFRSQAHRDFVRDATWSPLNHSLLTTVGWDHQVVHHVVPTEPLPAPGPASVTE
- METHOD NOTES: PRMT5 biochemical IC50 assay with MTA as cofactor
- REPORTED CONDITIONS: PRMT5, MTA as cofactor; read-out: MTA IC50
METRIC: IC50

- COMPOUND: "Cc1cc(NC(=O)C(=O)N2C[C@H](C)CC[C@H]2c2ccc(S(N)(=O)=O)cc2)cnc1N (racemic)"
  TARGET OR SYSTEM: "PRMT5 (Homo sapiens, UniProt O14744)"
  MEAS VALUE: "50 to 500 nM"
- COMPOUND: "Cc1cc(NC(=O)C(=O)N2C[C@H](C)CC[C@H]2c2ccc3sc(N)nc3c2)cnc1N (single isomer, unassigned)"
  TARGET OR SYSTEM: "PRMT5 (Homo sapiens, UniProt O14744)"
  MEAS VALUE: "> 500 nM"
- COMPOUND: "CC(C)c1cc(NC(=O)C(=O)N2C[C@@H](C)CC[C@@H]2c2ccc(F)cc2)cnc1N"
  TARGET OR SYSTEM: "PRMT5 (Homo sapiens, UniProt O14744)"
  MEAS VALUE: "< 50 nM"
- COMPOUND: "C[C@H]1CC[C@H](c2cnc3[nH]ncc3c2)N(C(=O)C(=O)Nc2cncc(C(N)=O)c2)C1 (single isomer, unassigned)"
  TARGET OR SYSTEM: "PRMT5 (Homo sapiens, UniProt O14744)"
  MEAS VALUE: "50 to 500 nM"
- COMPOUND: "CCc1cc(NC(=O)C(=O)N2C[C@@H](C)CC[C@@H]2c2ccc3sc(CN(C)C)nc3c2)cnc1N"
  TARGET OR SYSTEM: "PRMT5 (Homo sapiens, UniProt O14744)"
  MEAS VALUE: "< 50 nM"
- COMPOUND: "C[C@@H]1CC[C@@H]([C@H]2CCC[C@@H](O)C2)N(C(=O)C(=O)Nc2cncc(C(N)=O)c2)C1 (single isomer, unassigned)"
  TARGET OR SYSTEM: "PRMT5 (Homo sapiens, UniProt O14744)"
  MEAS VALUE: "50 to 500 nM"
- COMPOUND: "Cc1cc(NC(=O)C(=O)N2C[C@H](C)CC[C@@H]2C2CCCCC2)cnc1N (racemic)"
  TARGET OR SYSTEM: "PRMT5 (Homo sapiens, UniProt O14744)"
  MEAS VALUE: "50 to 500 nM"

====

Below: a set of entries, each annotated with reported pIC50.
- TARGET OR SYSTEM: PRMT5 (Homo sapiens)
- Construct: purchased Viva (custom protein)
- METHOD NOTES: PRMT5 biochemical IC50 assay with SAM as cofactor
- REPORTED CONDITIONS: PRMT5, SAM as cofactor; read-out: SAM IC50
pIC50: −log10 of the molar value.

- MOLECULE: "COc1ncc(NC(=O)C(=O)N2CCCCC2C2CCCC2)cc1C(N)=O (single isomer, unassigned) [Compound 294]"
  pIC50: "6.30 to 7.30"
- MOLECULE: "COc1ncc(NC(=O)C(=O)N2C[C@@H](C)CC[C@H]2C2CCCCC2)cc1C(N)=O (single isomer, unassigned)"
  pIC50: "< 6.30"
- MOLECULE: "C[C@H]1CC[C@H](c2ccc3sc(C4CCN(C)CC4)nc3c2)N(C(=O)C(=O)Nc2cnc(OC(F)(F)F)c(C(N)=O)c2)C1 (single isomer, unassigned)"
  pIC50: "> 7.30"
- MOLECULE: "CCc1cc(NC(=O)C(=O)N2C[C@H](C)CC[C@H]2c2ccc3c(cnn3CCN(C)C)c2)cnc1N (single isomer, unassigned)"
  pIC50: "6.30 to 7.30"
- MOLECULE: "C[C@H]1CC[C@H](c2ccc3[nH]ncc3n2)N(C(=O)C(=O)Nc2cncc(C(N)=O)c2)C1 (single isomer, unassigned)"
  pIC50: "6.30 to 7.30"
- MOLECULE: "CCc1cc(NC(=O)C(=O)N2C[C@@H](C)CC[C@@H]2c2ccc3sc([C@H]4CN(C)CCO4)nc3c2)cnc1N [Compound 1275]"
  pIC50: "6.30 to 7.30"

====

- TARGET OR SYSTEM: PRMT5 (Homo sapiens, UniProt O14744)
- Construct: purchased Viva (custom protein)
- METHOD NOTES: PRMT5 biochemical IC50 assay with no cofactor
- REPORTED CONDITIONS: No Cofactor/rel IC50, PRMT5, no cofactor
pIC50: −log10 of the molar value.

- COMPOUND: "CCc1cc(NC(=O)C(=O)N2C[C@@H](C)CC[C@@H]2c2ccc3sc(C4(OC)CCN(C)CC4)nc3c2)cnc1N [Compound 1118]"
  pIC50: "> 7.30"
- COMPOUND: "CCc1cc(NC(=O)C(=O)N2C[C@@H](C)CC[C@@H]2c2ccc3sc(C4(C)CCN(C)CC4)nc3c2)cnc1N [Compound 1171]"
  pIC50: "> 7.30"

====

- TARGET OR SYSTEM: PRMT5 (Homo sapiens, UniProt O14744)
- Construct: purchased Viva (custom protein)
- METHOD NOTES: PRMT5 biochemical IC50 assay with no cofactor
- REPORTED CONDITIONS: PRMT5, no cofactor; read-out: No Cofactor/rel IC50
pIC50: −log10 of the molar value.
Below: a set of entries, each annotated with reported pIC50.

- COMPOUND: "COc1ncc(NC(=O)C(=O)N2C[C@@H](C)CC[C@@H]2c2cccs2)cc1C(N)=O (single isomer, unassigned) [Compound 303]"
  pIC50: "> 7.30"
- COMPOUND: "COc1ncc(NC(=O)C(=O)N2C[C@H](C)CC[C@H]2c2ccc(C)cn2)cc1C(N)=O (racemic) [Compound 932]"
  pIC50: "6.30 to 7.30"
- COMPOUND: "Cc1ccc([C@@H]2CC[C@@H](C)CN2C(=O)C(=O)Nc2cncc(C(N)=O)c2)cc1Cl (racemic) [Compound 179]"
  pIC50: "6.30 to 7.30"
- COMPOUND: "C[C@@H]1CC[C@@H](c2ccc(NCC(F)(F)F)cc2)N(C(=O)C(=O)Nc2cncc(C(N)=O)c2)C1 (single isomer, unassigned) [Compound 455]"
  pIC50: "6.30 to 7.30"
- COMPOUND: "C[C@@H]1CC[C@@H](c2ccc3sc(N)nc3c2)N(C(=O)C(=O)Nc2cncc(C(N)=O)c2)C1 (single isomer, unassigned) [Compound 1001]"
  pIC50: "< 6.30"
- COMPOUND: "Cc1cc(NC(=O)C(=O)N2C[C@H](C(N)=O)CC[C@H]2c2ccccc2)cnc1N (racemic) [Compound 315]"
  pIC50: "6.30 to 7.30"
- COMPOUND: "CNc1nc2cc([C@@H]3CC[C@@H](C)CN3C(=O)C(=O)Nc3cncc(C(N)=O)c3)ccc2s1 (single isomer, unassigned) [Compound 877]"
  pIC50: "6.30 to 7.30"
- COMPOUND: "C[C@@H]1C[C@@H](C)[C@@H](c2ccccc2)N(C(=O)C(=O)Nc2cncc(C(N)=O)c2)C1 (single isomer, unassigned) [Compound 286]"
  pIC50: "< 6.30"
- COMPOUND: "C[C@]1(F)CC[C@@H](c2ccccc2)N(C(=O)C(=O)Nc2cncc(C(N)=O)c2)C1 (single isomer, unassigned) [Compound 798]"
  pIC50: "< 6.30"
- COMPOUND: "Cc1cc(NC(=O)C(=O)N2C[C@@H](C)CC[C@@H]2c2cccc3[nH]ccc23)cnc1N (single isomer, unassigned) [Compound 1038]"
  pIC50: "< 6.30"
- COMPOUND: "C[C@H]1CC[C@H](c2cnc3[nH]ncc3c2)N(C(=O)C(=O)Nc2cncc(C(N)=O)c2)C1 (single isomer, unassigned) [Compound 574]"
  pIC50: "6.30 to 7.30"
- COMPOUND: "COc1ncc(NC(=O)C(=O)N2C[C@@H](C)CC[C@@H]2c2cnc3[nH]ncc3c2)cc1C(N)=O (single isomer, unassigned) [Compound 537]"
  pIC50: "< 6.30"
- COMPOUND: "Cc1cc(NC(=O)C(=O)N2C[C@H](C)CC[C@H]2c2ccc(N)cn2)cnc1N (racemic) [Compound 658]"
  pIC50: "6.30 to 7.30"

====

- TARGET OR SYSTEM: PRMT5 (Homo sapiens)
- Construct: purchased Viva (custom protein)
- METHOD NOTES: PRMT5 biochemical IC50 assay with MTA as cofactor
- REPORTED CONDITIONS: PRMT5, MTA as cofactor; read-out: MTA IC50
pIC50: −log10 of the molar value.
METRIC: pIC50

- COMPOUND: "C[C@H]1CC[C@H](c2cc(Cl)cc(C(F)(F)F)c2)N(C(=O)C(=O)Nc2cncc(C(N)=O)c2)C1 (single isomer, unassigned)"
  METRIC: "pIC50"
  MEAS VALUE: "> 7.30"
- COMPOUND: "COc1cc([C@@H]2CC[C@@H](C)CN2C(=O)C(=O)Nc2cnc(N)c(C)c2)ccn1 (single isomer, unassigned)"
  METRIC: "pIC50"
  MEAS VALUE: "> 7.30"
- COMPOUND: "C[C@@H]1CC[C@@H](c2ccc3sccc3c2)N(C(=O)C(=O)Nc2cncc(C(N)=O)c2)C1 (racemic) [Compound 409]"
  METRIC: "pIC50"
  MEAS VALUE: "> 7.30"
